Reported CC50 at 24 h values for a set of compounds
- assay: Cytotoxicity against HEK293 cells incubated for 24 hrs by CCK8 assay
- Assay type: toxicity, cell-based
- study.conditions: human

Observe how each entry below is paired with its result.
> print(dat)
                                item.smiles  test.readout  meas.value
1  C=C[C@]1(C)C[C@@H](OC(=O)COC(=O)/C(C#N)=C/c2ccccc2)[C@]2(C)[C@H](C)CC[C@]3(CCC(=O)[C@H]32)[C@@H](C)[C@@H]1O  CC50 at 24 h    > 200 µM
2  C=C[C@]1(C)C[C@@H](OC(=O)COC(=O)/C=C/c2cccc(C#N)c2)[C@]2(C)[C@H](C)CC[C@]3(CCC(=O)[C@H]32)[C@@H](C)[C@@H]1O  CC50 at 24 h     29.2 µM
3  C=C[C@]1(C)C[C@@H](OC(=O)CSC(C)(C)CNC(=O)[C@H](N)C(C)C)[C@]2(C)[C@H](C)CC[C@]3(CCC(=O)[C@H]32)[C@@H](C)[C@@H]1O  CC50 at 24 h     31.1 µM
4  C=C[C@]1(C)C[C@@H](OC(=O)COC(=O)/C=C/c2ccc([N+](=O)[O-])cc2)[C@]2(C)[C@H](C)CC[C@]3(CCC(=O)[C@H]32)[C@@H](C)[C@@H]1O  CC50 at 24 h    > 200 µM
5  C=C[C@]1(C)C[C@@H](OC(=O)CS[C@@H]2C[C@H]3CC[C@@H](C2)N3C)[C@]2(C)[C@H](C)CC[C@]3(CCC(=O)[C@H]32)[C@@H](C)[C@@H]1O  CC50 at 24 h     62.9 µM

Reported CC50 at 24 h for "C=C[C@]1(C)C[C@@H](OC(=O)COC(=O)/C=C/c2ccc(N(C)C)cc2)[C@]2(C)[C@H](C)CC[C@]3(CCC(=O)[C@H]32)[C@@H](C)[C@@H]1O" was 34.6 µM

Reported CC50 at 24 h for "C=C[C@]1(C)C[C@@H](OC(=O)COC(=O)/C=C/c2cccnc2)[C@]2(C)[C@H](C)CC[C@]3(CCC(=O)[C@H]32)[C@@H](C)[C@@H]1O" was 28.6 µM
